Hello, the source for this data is patent US20200024320A1, in case you need it.

Target: T1, MBP-RAMP2 ECD [L106R]-(GS)5-CLR ECD-H6 fusion protein (human, UniProt O60895 43-143; Q16602 29-144)
T1 chain: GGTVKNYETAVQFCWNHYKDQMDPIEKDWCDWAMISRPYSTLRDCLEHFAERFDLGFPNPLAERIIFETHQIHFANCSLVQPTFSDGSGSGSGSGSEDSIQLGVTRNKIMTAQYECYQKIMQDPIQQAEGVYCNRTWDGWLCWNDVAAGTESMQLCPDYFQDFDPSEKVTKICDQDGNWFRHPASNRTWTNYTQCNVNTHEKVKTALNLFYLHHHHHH
Experiment: FP competition, FITC-AM W/W probe, RAMP2-CLR ECD
Where no end group is shown, it is not given here.
Rule: Ki below 3000 nM gives yes (1), anything at or above gives no (0).

BINDER	CATEGORY
DKDNVAPRWWISPWGF-NH2 [AM(37-52)NH2 [S45W, K46W, Q50W, Y52F]]	no (0)
DKDNVAPRSKISPFGY-NH2 [AM(37-52)NH2 [Q50F]]	yes (1)
DKFNVAPRSLISPWGY-NH2 [AM(37-52)NH2 [D39F, K46L, Q50W]]	yes (1)
DKDNVAPRSLISPWGY-NH2 [AM(37-52)NH2 [K46L, Q50W]]	yes (1)
DKDNVAPRWLISPWGF-NH2 [AM(37-52)NH2 [S45W, K46L, Q50W, Y52F]]	no (0)
FVPTDVGPWSY-NH2 [CGRP(27-37)NH2 [N31D, S34P, K35W, A36S, F37Y]]	yes (1)
FVPTDTGPWSF-NH2 [CGRP(27-37)NH2 [N31D, V32T, S34P, K35W, A36S]]	yes (1)
FVPTDTGPWGY-NH2 [CGRP(27-37)NH2 [N31D, V32T, S34P, K35W, A36G, F37Y]]	no (0)
DKFNVAPRSLISPWGF-NH2 [AM(37-52)NH2 [D39F, K46L, Q50W, Y52F]]	no (0)
DKDNVAPRSLISPWGF-NH2 [AM(37-52)NH2 [K46L, Q50W, Y52F]]	no (0)
DKDNVAPRSKISPQGY-NH2 (also called WT (AM(37-52)NH2 scaffold)) [AM(37-52)NH2]	no (0)
DKDNVAPRSKISPWGY-NH2 [AM(37-52)NH2 [Q50W]]	yes (1)
DKDNVAPRTLISPWGY-NH2 [AM(37-52)NH2[S45T, K46L, Q50W]]	yes (1)
DKDNVAPRWMISPWGF-NH2 [AM(37-52)NH2 [S45W, K46M, Q50W, Y52F]]	no (0)
FVPTDVGPWSF-NH2 [CGRP(27-37)NH2 [N31D, S34P, K35W, A36S]]	yes (1)
